Exercise: state measured cell viability for each of the molecules provided.
# Tested on: SEM cells
# method-description: cell viability relative to DMSO control; higher = less cytotoxic
# assay-conditions: RPMI 5 mM glucose + 10% FBS; 48 h; 0.569 µM
One number for each entry, in %.

INSERT INTO assay_data (test_smiles, unit, test_result) VALUES
  ('CCN(CC)CCCCNc1ncc2cc(-c3cc(OC)cc(OC)c3)c(NC(=O)NC(C)(C)C)nc2n1', '%', 92.1),
  ('Cc1onc(-c2ccccc2Cl)c1C(=O)N[C@@H]1C(=O)N2[C@@H]1SC(C)(C)[C@@H]2C(=O)[O-]', '%', 83.8),
  ('CN(C)C1CCN(C(=O)c2ccc(NC(=O)Nc3nc(N4CCOCC4)nc(N4CCOCC4)n3)cc2)CC1', '%', 39.3),
  ('c1ccc2[nH]c(-c3cscn3)nc2c1', '%', 126);

Now for another entry.
Form: item COc1ccc([S+](=O)([O-])N(C(C)=O)c2ccccc2/C=C/c2cc[n+]([O-])cc2)cc1 ; test system SEM cells; cell viability: 111

----------
# Tested on: SEM cells
# method-description: cell viability relative to DMSO control; higher = less cytotoxic
# assay-conditions: RPMI 5 mM glucose + 10% FBS; 48 h; 0.00234 µM
parameter-measured: cell viability (%)
One number for each entry, in %.

INSERT INTO assay_data (compound, test_system, parameter_measured, test_result) VALUES
  ('Cc1ccccc1C(=O)c1ccc(Nc2ccc(Br)cc2N)cc1Cl', 'SEM cells', 'cell viability', 106);

// batch mode: one cell viability value per listed entry
1. O=C(NCC1CCCCN1)c1cc(OCC(F)(F)F)ccc1OCC(F)(F)F (stereo not drawn)
2. CCN(CC)CCOc1ccc(/C(=C(\Cl)c2ccccc2)c2ccccc2)cc1
3. CCN(CC)CCCCNc1ncc2cc(-c3cc(OC)cc(OC)c3)c(NC(=O)NC(C)(C)C)nc2n1
4. CN1CCN(C2=Nc3cc(Cl)ccc3Nc3ccccc32)CC1
5. CC1CNc2c(cccc2[S+](=O)([O-])N[C@@H](CCCNC(=N)N)C(=O)N2CC[C@@H](C)C[C@@H]2C(=O)O)C1 (stereo partly drawn)
6. CC[C@H](/C=C/[C@@H](C)[C@H]1CC[C@H]2[C@@H]3CC=C4C[C@@H](O)CC[C@]4(C)[C@H]3CC[C@]12C)C(C)C
7. O=C(O)CCC1CCC(c2cc(F)ccc2F)([S+](=O)([O-])c2ccc(Cl)cc2)CC1 (stereo not drawn)

*A*
[115, 94.7, 113, 96.1, 90, 83.8, 110]

----------
# System: SEM cells
# method-description: AUC of viability dose-response curve (% viability x log10 dose units); higher = less sensitive
# assay-conditions: HPLM + 10% dialyzed FBS; 48 h
Exercise: state measured AUC of viability dose-response curve for each of the compounds provided.
Numbers only.

Check out these entries, answers already filled in.
INSERT INTO results (compound, test_result) VALUES
  ('c1ccc2[nH]c(-c3cscn3)nc2c1', 439),
  ('CN[C@@H](C)[C@H]1[C@H](O)C[C@@]2(C)[C@@H]3CC[C@H]4C(C)(C)[C@@H](NC)CC[C@@]45C[C@@]35CC[C@]12C', 376),
  ('CCCCC(=O)O[C@]1(C(=O)CO)[C@H](C)C[C@H]2[C@@H]3CCC4=CC(=O)C=C[C@]4(C)[C@@]3(F)[C@@H](O)C[C@@]21C', 378),
  ('O=C(Nc1cc(Cl)cc2c1[nH]c1cnccc12)c1cccnc1', 468),
  ('CC1CNc2c(cccc2[S+](=O)([O-])N[C@@H](CCCNC(=N)N)C(=O)N2CC[C@@H](C)C[C@@H]2C(=O)O)C1 (stereo partly drawn)', 453);

// batch mode: one AUC of viability dose-response curve value per listed entry
1. O=C(/C=C\n1cnc(-c2cc(C(F)(F)F)cc(C(F)(F)F)c2)n1)NNc1cnccn1
2. CC1(C)O[C@@H]2C[C@H]3[C@@H]4C[C@H](F)C5=CC(=O)C=C[C@]5(C)[C@@]4(F)[C@@H](O)C[C@]3(C)[C@]2(C(=O)CO)O1
3. CCN1\C=C(\C(O)=O)C(=O)C2=C1C=C(N3CCNCC3)C(=C2)F
4. CCC1(c2ccccc2)C(=O)NCNC1=O
5. CCOC(=O)N1CCN(/[N+]([O-])=N/Oc2ccc([N+](=O)[O-])cc2C#N)CC1
6. C[C@@H]1COCCN1c1cc(C2([S@+](C)(=N)[O-])CC2)nc(-c2ccnc3[nH]ccc23)n1
7. NC(=O)c1cccnc1
8. CC(C)(O)CC[C@@H](O)[C@](C)(O)[C@H]1CC[C@@]2(O)C/3=C/C(=O)[C@@H]4C[C@@H](O)[C@@H](O)C[C@]4(C)[C@H]3CC[C@]12C

*A*
1: 310; 2: 305; 3: 385; 4: 441; 5: 331; 6: 333; 7: 448; 8: 434

----------
# System: NOMO1
# method-description: cell viability relative to DMSO control; higher = less cytotoxic
# assay-conditions: RPMI 5 mM glucose + 10% dialyzed FBS; 48 h; 0.19 µM
parameter-measured: cell viability (%)
Answers are plain numbers, in %.

INSERT INTO assay_data (compound, parameter_measured, test_result) VALUES
  ('O=C1[C@H](Cc2ccc(O)cc2)N2C(=O)CCN(C(=O)NCc3ccccc3)[C@H]2CN1Cc1cccc2ccccc12', 'cell viability', 89.5),
  ('C[C@@H]1COCCN1c1cc(C2([S@+](C)(=N)[O-])CC2)nc(-c2ccnc3[nH]ccc23)n1', 'cell viability', 120),
  ('CCOC(=O)c1ccc(OC(=O)CCCCCNC(=N)N)cc1', 'cell viability', 142);

// batch mode: one cell viability value per listed entry
1. O=C(O)C1(Cc2cccc(Nc3nccs3)n2)CCC(Oc2cccc(Cl)c2F)CC1 (configuration not stated)
2. CCN1CCN(CC1)CC(=O)NC2=CC=C(C3=C2C4=C(S3)C=CC=C4)C5=C6O\C(=C/C(=O)C6=CC=C5)N7CCOCC7
3. COc1ccc(-c2ccc3ncc4c(c3c2)n(-c2ccc(N3CCNCC3)c(C(F)(F)F)c2)c(=O)n4C)cn1
4. C[C@]12CCC(=O)C=C1CC[C@@H]1[C@@H]2[C@@H](O)C[C@@]2(C)[C@H]1CC[C@]2(O)C(=O)CO

*A*
1: 105; 2: 128; 3: 46.1; 4: 113

// batch mode: one cell viability value per listed entry
1. OC[C@@H](O)[C@@H](O)[C@H](O)[C@@H](O)CO
2. O=c1[nH]c(=O)n([C@H]2C[C@H](O)[C@@H](CO)O2)cc1/C=C/Br
3. Clc1ccc(-c2nc3sccn3c2/C=N/OCc2ccc(Cl)c(Cl)c2)cc1
4. CCC[S+]([O-])c1ccc2[nH]c(NC(=O)OC)nc2c1 (configuration not stated)

*A*
[137, 114, 98, 88.8]

// batch mode: one cell viability value per listed entry
1. O=C1c2ccccc2-[n+]2ccc3c([nH]c4ccccc43)c21
2. CC(C)c1nc(CN(C)C(=O)N[C@H](C(=O)N[C@@H](Cc2ccccc2)C[C@H](O)[C@H](Cc2ccccc2)NC(=O)OCc2cncs2)C(C)C)cs1
3. C[N]1C=C(C=N1)C2=C3\C=N/NC(=O)C4=C3C(=CC(=C4)NC(=O)[C@H](N)C5CCCCC5)[NH]2
4. COc1ccc([C@@H]2CC(=O)c3c(O)cc(O[C@@H]4O[C@H](CO[C@@H]5O[C@@H](C)[C@H](O)[C@@H](O)[C@H]5O)[C@@H](O)[C@H](O)[C@H]4O)cc3O2)cc1O
5. COc1cc(OC2CCN(C)CC2)ccc1Nc1ncc2c(n1)n(C1CCCC1)c(=O)n2C
6. CN1CCN(C2=Nc3cc(Cl)ccc3Nc3ccccc32)CC1

*A*
[126, 83.2, 87, 96.6, 95.2, 106]

----------
Exercise: state measured cell viability for each of the compounds provided.
# Test system: P12-Ichikawa
# method-description: cell viability relative to DMSO control; higher = less cytotoxic
# assay-conditions: RPMI 5 mM glucose + 10% dialyzed FBS; 48 h; 5.12 µM
Answers without a unit are incomplete; give the number and then its unit.

INSERT INTO results (test_smiles, parameter_measured, test_result) VALUES
  ('CC(C)OC(=O)/C1=C/N(CC(C)(C)C2=C1[NH]C3=CC=CC=C23)C(=O)C4=CC=C(F)C(=C4)F', 'cell viability', '78.4%'),
  ('OC[C@H]1O[C@H]([C@H](O)[C@@H]1O)N2\C=C/C(=O)NC2=O', 'cell viability', '96%'),
  ('C[C@H]1C[C@@H]2[C@H](CC[C@@]3(C)[C@H]2CC[C@]3(OC(C)=O)C(C)=O)[C@@]\4(C)CCC(=O)\C=C14', 'cell viability', '96%'),
  ('CNc1nc(Nc2ccc(C(=O)N3CCOCC3)cc2OC)ncc1Cl', 'cell viability', '112%');

Now for another entry.
GET /value?item= C[C@](O)(CS(=O)(=O)c1ccc(F)cc1)C(=O)Nc1ccc(C#N)c(C(F)(F)F)c1 &field=cell viability returns 130%
